Molecular target: Short transient receptor potential channel 4 (Mus musculus, UniProt Q9QUQ5)
Sequence (Q9QUQ5 whole entry): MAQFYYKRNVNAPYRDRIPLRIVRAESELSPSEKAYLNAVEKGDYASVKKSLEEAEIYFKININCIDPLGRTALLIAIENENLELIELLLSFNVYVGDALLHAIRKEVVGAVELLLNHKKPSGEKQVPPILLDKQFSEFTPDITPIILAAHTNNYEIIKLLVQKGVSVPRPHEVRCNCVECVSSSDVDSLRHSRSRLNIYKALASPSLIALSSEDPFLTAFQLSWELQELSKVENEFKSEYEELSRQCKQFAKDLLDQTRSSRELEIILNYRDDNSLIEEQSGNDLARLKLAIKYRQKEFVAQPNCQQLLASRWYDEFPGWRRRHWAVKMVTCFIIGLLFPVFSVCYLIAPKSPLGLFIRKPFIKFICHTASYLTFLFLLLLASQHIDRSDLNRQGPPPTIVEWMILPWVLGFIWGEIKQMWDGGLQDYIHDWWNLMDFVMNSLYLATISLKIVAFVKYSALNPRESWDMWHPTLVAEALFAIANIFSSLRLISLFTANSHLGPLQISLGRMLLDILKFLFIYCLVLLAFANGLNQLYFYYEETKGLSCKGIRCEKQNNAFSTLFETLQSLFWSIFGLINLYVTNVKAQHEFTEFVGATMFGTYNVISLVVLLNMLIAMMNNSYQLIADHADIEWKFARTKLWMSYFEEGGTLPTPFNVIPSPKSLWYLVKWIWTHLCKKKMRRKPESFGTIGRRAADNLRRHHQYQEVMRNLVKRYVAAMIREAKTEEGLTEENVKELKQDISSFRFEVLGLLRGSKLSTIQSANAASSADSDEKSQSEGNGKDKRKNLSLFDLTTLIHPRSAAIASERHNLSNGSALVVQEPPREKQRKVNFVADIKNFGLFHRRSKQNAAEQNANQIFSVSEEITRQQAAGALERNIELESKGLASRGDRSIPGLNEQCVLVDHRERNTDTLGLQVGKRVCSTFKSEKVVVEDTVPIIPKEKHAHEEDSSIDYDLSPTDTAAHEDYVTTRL
Test: block of DAMGO-driven TRPC4 calcium entry – cell-based, HEK293 TRPC4/mu-opioid, Fluo-4 calcium, dose response (AID 434942);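 also: potency of inhibitors blocking the TRPC4 calcium response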
Assay type: functional
Activity calls are given as the source filed them. No rule for the calls is given here.
measuredQuantity: EC50

- molecule: "COc1cccc(CNCc2ccccn2)c1OC"
  val: "0.299 µM (active)"
- molecule: "CN(C)C(CNC(=O)c1oc2ccccc2c1CSc1nc[nH]n1)c1ccco1 (stereo unspecified)"
  val: "8.41 µM (active)"
- molecule: "O=C(O)c1ccc(Cl)cc1Nc1nc2cc(Cl)ccc2o1"
  val: "5.31 µM (active)"
- molecule: "NS(=O)(=O)c1ccc(CCNCc2ccccc2OCc2ccc(Cl)cc2)cc1"
  val: "6.68 µM (active)"
- molecule: "C=CCSc1nc2c(c(=O)[nH]c(=O)n2C)n1C/C=C(/C)Cl"
  val: "2.37 µM (active)"
- molecule: "Cc1ccc(NC(=O)CNc2ccccc2CN(C)C2CCCCC2)cc1"
  val: "2.99 µM (active)"
